Biological target: Urea transporter 1 (Rattus norvegicus, UniProt P97689)
Sequence (P97689 whole entry): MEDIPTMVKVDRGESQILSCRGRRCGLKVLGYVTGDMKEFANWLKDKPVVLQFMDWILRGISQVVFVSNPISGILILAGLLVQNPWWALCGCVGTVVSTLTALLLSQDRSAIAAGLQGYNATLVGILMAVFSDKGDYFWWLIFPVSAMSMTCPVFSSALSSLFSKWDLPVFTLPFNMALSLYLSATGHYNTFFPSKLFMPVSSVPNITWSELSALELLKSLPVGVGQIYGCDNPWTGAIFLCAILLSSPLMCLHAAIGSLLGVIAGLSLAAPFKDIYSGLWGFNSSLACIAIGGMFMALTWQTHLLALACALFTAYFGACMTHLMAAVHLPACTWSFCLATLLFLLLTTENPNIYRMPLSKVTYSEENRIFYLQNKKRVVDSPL
Assay: Inhibition of rat UT-B expressed in MDCK cells assessed as inhibition of urea transport incubated for 30 mins
Type: cell-based
OBSERVATION_TYPE: IC50 (nM)

                          molecule  uom  meas_value
0  COC(=O)c1sc2nc3ccc(OC)cc3cc2c1N   nM         900

###

Target: Aquaporin-1 (Homo sapiens)
Sequence (P29972 whole entry): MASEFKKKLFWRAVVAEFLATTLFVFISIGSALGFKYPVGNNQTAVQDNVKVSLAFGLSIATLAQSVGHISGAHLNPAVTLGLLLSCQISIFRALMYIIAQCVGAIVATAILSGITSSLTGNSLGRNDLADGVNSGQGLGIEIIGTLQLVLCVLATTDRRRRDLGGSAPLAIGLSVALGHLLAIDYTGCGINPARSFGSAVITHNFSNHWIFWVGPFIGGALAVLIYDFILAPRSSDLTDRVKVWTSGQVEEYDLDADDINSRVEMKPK
Test: Inhibition of human AQP1 water channel expressed in CHO cells incubated for 10 mins by FLIPR Tetra assay
Format: cell-based
pIC50: −log10 of the molar value.
Property: pIC50; scope: individual molecules
OBSERVATION_TYPE: pIC50

>>> print(df.to_string())
                                   molecule  observation_type  meas_value
0  Nc1nc(NCC2CCC(CNS(=O)(=O)c3cccc4ccccc34)CC2)nc2ccccc12 (configuration not stated)             pIC50        5.57
1  Nc1nc(NCC2CCC(CNS(=O)(=O)c3cccc4c(Cl)cccc34)CC2)nc2ccccc12 (configuration not stated)             pIC50        5.24
